test system: NCI-H226 complex tumor spheroids, viability; test: Anticancer human tumor NCI-H226 cell line growth inhibition; settings: second compound 0.0949 µM; first compound 0.316 µM; hits give low values;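 also: spheroids exposed to compound for 7 days; 100% = DMSO vehicle control viability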
For each record, write down the corresponding viability, T/C.
Give bare numbers, in %.

Here is how some compounds turned out for viability, T/C.
1. CC1COCCN1c1cc(-c2ccnn2C)c2ccnc(-c3ccn[nH]3)c2n1 (stereo unspecified) + CC[C@@]1(O)C(=O)OCc2c1cc1n(c2=O)Cc2cc3c(CN(C)C)c(O)ccc3nc2-1 = 65.1
2. [2H]c1nc(C)nc([2H])c1-c1cc(NC[C@@H](C)c2cccc3c(C(=O)NC)ccnc23)ncn1 + CC[C@@]1(O)C(=O)OCc2c1cc1n(c2=O)Cc2cc3c(CN(C)C)c(O)ccc3nc2-1 = 85.1
3. COc1cc(C)[nH]c(=O)c1CN1CCc2c(Cl)cc(C(OC)C3COC3)c(Cl)c2C1=O (stereo unspecified) + CC[C@@]1(O)C(=O)OCc2c1cc1n(c2=O)Cc2cc3c(CN(C)C)c(O)ccc3nc2-1 = 86.4
4. Cc1cc(C)c(CNC(=O)c2cc(-c3ccc(CN4CCOCC4)cc3)cc3c2cnn3C2CCCC2)c(=O)[nH]1 + CC[C@@]1(O)C(=O)OCc2c1cc1n(c2=O)Cc2cc3c(CN(C)C)c(O)ccc3nc2-1 = 71
5. CC(C)n1c(=O)n(C)c2cnc3cc(F)c(-c4ccc(OCCCN5CCCCC5)nc4)cc3c21 + CC[C@@]1(O)C(=O)OCc2c1cc1n(c2=O)Cc2cc3c(CN(C)C)c(O)ccc3nc2-1 = 75.7

Now look at this entry.
INPUT: GET /values?readout=viability, T/C&item= COc1ccc([C@@H](O)c2cc(-c3ncnc4cc(N5CCOCC5)ccc34)c(F)cc2Cl)nn1 + CC[C@@]1(O)C(=O)OCc2c1cc1n(c2=O)Cc2cc3c(CN(C)C)c(O)ccc3nc2-1
OUTPUT: 74.8

* * *

test system: NCI-H226 complex tumor spheroids, viability; test: Anticancer human tumor NCI-H226 cell line growth inhibition; conditions: second compound 30 pM; first compound 0.316 µM; hits give low values;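 also: spheroids exposed to compound for 7 days; 100% = DMSO vehicle control viability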
Please assign false whenever viability, T/C is at or above 90%, and true whenever it is below.

Below, 4 compounds whose answers are already recorded.
1. [2H]c1nc(C)nc([2H])c1-c1cc(NC[C@@H](C)c2cccc3c(C(=O)NC)ccnc23)ncn1 + COc1cc2c(cc1O)CCNC21CSC2c3c(OC(C)=O)c(C)c4c(c3C(COC1=O)N1C(O)C3Cc5cc(C)c(OC)c(O)c5C(C21)N3C)OCO4 = false
2. CC(C)n1c(=O)n(C)c2cnc3cc(F)c(-c4ccc(OCCCN5CCCCC5)nc4)cc3c21 + COc1cc2c(cc1O)CCNC21CSC2c3c(OC(C)=O)c(C)c4c(c3C(COC1=O)N1C(O)C3Cc5cc(C)c(OC)c(O)c5C(C21)N3C)OCO4 = false
3. COc1cc(C)[nH]c(=O)c1CN1CCc2c(Cl)cc(C(OC)C3COC3)c(Cl)c2C1=O (stereo unspecified) + COc1cc2c(cc1O)CCNC21CSC2c3c(OC(C)=O)c(C)c4c(c3C(COC1=O)N1C(O)C3Cc5cc(C)c(OC)c(O)c5C(C21)N3C)OCO4 = false
4. Cc1cc(C)c(CNC(=O)c2cc(-c3ccc(CN4CCOCC4)cc3)cc3c2cnn3C2CCCC2)c(=O)[nH]1 + COc1cc2c(cc1O)CCNC21CSC2c3c(OC(C)=O)c(C)c4c(c3C(COC1=O)N1C(O)C3Cc5cc(C)c(OC)c(O)c5C(C21)N3C)OCO4 = false

Now consider the entry below.
INPUT: Would you kindly verify if viability, T/C of COc1ccc([C@@H](O)c2cc(-c3ncnc4cc(N5CCOCC5)ccc34)c(F)cc2Cl)nn1 + COc1cc2c(cc1O)CCNC21CSC2c3c(OC(C)=O)c(C)c4c(c3C(COC1=O)N1C(O)C3Cc5cc(C)c(OC)c(O)c5C(C21)N3C)OCO4 is strictly less than 90%?
OUTPUT: true

* * *

For each record, write down the corresponding viability, T/C.
system: NCI-H226 complex tumor spheroids, viability; assay: Anticancer human tumor NCI-H226 cell line growth inhibition; conditions: second compound 0.3 µM; first compound 0.3 µM; hits give low values;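 also: spheroids exposed to compound for 7 days; 100% = DMSO vehicle control viability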
One number for each entry, in %.

Here is how some compounds turned out for viability, T/C.
1. CNCc1ccc(-c2cc(-c3nc(-c4ccc(S(=O)(=O)C(C)C)cc4)cnc3N)on2)cc1 + CC[C@@]1(O)C(=O)OCc2c1cc1n(c2=O)Cc2cc3c(CN(C)C)c(O)ccc3nc2-1 = 101
2. Cn1ncnc1[C@H]1c2n[nH]c(=O)c3cc(F)cc(c23)N[C@@H]1c1ccc(F)cc1 + CC[C@@]1(O)C(=O)OCc2c1cc1n(c2=O)Cc2cc3c(CN(C)C)c(O)ccc3nc2-1 = 56.5
3. O=C(c1cc(Cc2n[nH]c(=O)c3ccccc23)ccc1F)N1CCN(C(=O)C2CC2)CC1 + CC[C@@]1(O)C(=O)OCc2c1cc1n(c2=O)Cc2cc3c(CN(C)C)c(O)ccc3nc2-1 = 68.7

INPUT: GET /values?readout=viability, T/C&item= Cc1sc2c(c1C)C(c1ccc(Cl)cc1)=NC(CC(=O)Nc1ccc(O)cc1)c1nnc(C)n1-2 (centres undefined) + CC[C@@]1(O)C(=O)OCc2c1cc1n(c2=O)Cc2cc3c(CN(C)C)c(O)ccc3nc2-1
OUTPUT: 44.4

* * *

For each record, write down the corresponding viability, T/C.
tested on: NCI-H226 complex tumor spheroids, viability; test: Anticancer human tumor NCI-H226 cell line growth inhibition; details: second compound 0.000949 µM; first compound 0.3 µM; hits give low values;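 also: spheroids exposed to compound for 7 days; 100% = DMSO vehicle control viability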
Answers are plain numbers, in %.

1) Cc1sc2c(c1C)C(c1ccc(Cl)cc1)=NC(CC(=O)Nc1ccc(O)cc1)c1nnc(C)n1-2 (centres undefined) + COc1cc2c(cc1O)CCNC21CSC2c3c(OC(C)=O)c(C)c4c(c3C(COC1=O)N1C(O)C3Cc5cc(C)c(OC)c(O)c5C(C21)N3C)OCO4 = 67.1
2) O=C(c1cc(Cc2n[nH]c(=O)c3ccccc23)ccc1F)N1CCN(C(=O)C2CC2)CC1 + COc1cc2c(cc1O)CCNC21CSC2c3c(OC(C)=O)c(C)c4c(c3C(COC1=O)N1C(O)C3Cc5cc(C)c(OC)c(O)c5C(C21)N3C)OCO4 = 112
3) CNCc1ccc(-c2cc(-c3nc(-c4ccc(S(=O)(=O)C(C)C)cc4)cnc3N)on2)cc1 + COc1cc2c(cc1O)CCNC21CSC2c3c(OC(C)=O)c(C)c4c(c3C(COC1=O)N1C(O)C3Cc5cc(C)c(OC)c(O)c5C(C21)N3C)OCO4 = 91.4

Now look at this entry.
INPUT: I'm curious: which viability, T/C was measured for Cn1ncnc1[C@H]1c2n[nH]c(=O)c3cc(F)cc(c23)N[C@@H]1c1ccc(F)cc1 + COc1cc2c(cc1O)CCNC21CSC2c3c(OC(C)=O)c(C)c4c(c3C(COC1=O)N1C(O)C3Cc5cc(C)c(OC)c(O)c5C(C21)N3C)OCO4 tested on NCI-H226 complex tumor spheroids, viability?
OUTPUT: 93.3

* * *

test system: NCI-H226 complex tumor spheroids, viability; assay: Anticancer human tumor NCI-H226 cell line growth inhibition; details: second compound 0.000949 µM; first compound 0.1 µM; hits give low values;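 also: spheroids exposed to compound for 7 days; 100% = DMSO vehicle control viability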
MEASURED PROPERTY: viability, T/C (%)
Numbers only, in %.

Here is how some molecules turned out for viability, T/C.
1) CC1COCCN1c1cc(-c2ccnn2C)c2ccnc(-c3ccn[nH]3)c2n1 (stereo unspecified) + COc1cc2c(cc1O)CCNC21CSC2c3c(OC(C)=O)c(C)c4c(c3C(COC1=O)N1C(O)C3Cc5cc(C)c(OC)c(O)c5C(C21)N3C)OCO4 = 102
2) COc1cc(C)[nH]c(=O)c1CN1CCc2c(Cl)cc(C(OC)C3COC3)c(Cl)c2C1=O (stereo unspecified) + COc1cc2c(cc1O)CCNC21CSC2c3c(OC(C)=O)c(C)c4c(c3C(COC1=O)N1C(O)C3Cc5cc(C)c(OC)c(O)c5C(C21)N3C)OCO4 = 119
3) COc1ccc([C@@H](O)c2cc(-c3ncnc4cc(N5CCOCC5)ccc34)c(F)cc2Cl)nn1 + COc1cc2c(cc1O)CCNC21CSC2c3c(OC(C)=O)c(C)c4c(c3C(COC1=O)N1C(O)C3Cc5cc(C)c(OC)c(O)c5C(C21)N3C)OCO4 = 112
4) CC(C)n1c(=O)n(C)c2cnc3cc(F)c(-c4ccc(OCCCN5CCCCC5)nc4)cc3c21 + COc1cc2c(cc1O)CCNC21CSC2c3c(OC(C)=O)c(C)c4c(c3C(COC1=O)N1C(O)C3Cc5cc(C)c(OC)c(O)c5C(C21)N3C)OCO4 = 103
5) [2H]c1nc(C)nc([2H])c1-c1cc(NC[C@@H](C)c2cccc3c(C(=O)NC)ccnc23)ncn1 + COc1cc2c(cc1O)CCNC21CSC2c3c(OC(C)=O)c(C)c4c(c3C(COC1=O)N1C(O)C3Cc5cc(C)c(OC)c(O)c5C(C21)N3C)OCO4 = 114

INPUT: I'm curious: which viability, T/C was measured for Cc1cc(C)c(CNC(=O)c2cc(-c3ccc(CN4CCOCC4)cc3)cc3c2cnn3C2CCCC2)c(=O)[nH]1 + COc1cc2c(cc1O)CCNC21CSC2c3c(OC(C)=O)c(C)c4c(c3C(COC1=O)N1C(O)C3Cc5cc(C)c(OC)c(O)c5C(C21)N3C)OCO4 tested on NCI-H226 complex tumor spheroids, viability?
OUTPUT: 104
